The reported measurements were obtained from BindingDB's records for doi:10.1021/jm010087e.

Quick list: pKi per entry.
assayName: Inhibitory activity against clostridium histolyticum collagenase
pKi: −log10 of the molar value.

molecule	pKi
CC(C(=O)NO)N(Cc1ccccc1[N+](=O)[O-])S(=O)(=O)c1cccc(C(=O)O)c1 (stereo not drawn)	8.10
COc1ccc(S(=O)(=O)N(Cc2ccccc2[N+](=O)[O-])C(C)C(=O)NO)cc1 (stereo not drawn)	7.72
Cc1cc(C)c(S(=O)(=O)N(Cc2ccccc2[N+](=O)[O-])C(C)C(=O)NO)c(C)c1 (stereo not drawn)	7.68
Cc1cc(C)c(S(=O)(=O)N(Cc2ccccc2[N+](=O)[O-])C(C)C(=O)O)c(C)c1 (stereo not drawn)	5.22
CC(C(=O)NO)N(Cc1ccccc1[N+](=O)[O-])S(=O)(=O)c1cccc2c(N(C)C)cccc12 (stereo not drawn)	8.05
CC(C(=O)NO)N(Cc1ccccc1[N+](=O)[O-])S(=O)(=O)C(F)(F)C(F)(F)C(F)(F)C(F)(F)F (stereo not drawn)	8.00
CC(C(=O)O)N(Cc1ccccc1[N+](=O)[O-])S(=O)(=O)c1cccc(NC(=O)OC(C)(C)C)c1 (stereo not drawn)	5.60
CC(C(=O)O)N(Cc1ccccc1[N+](=O)[O-])S(=O)(=O)C(F)(F)C(F)(F)C(F)(F)C(F)(F)F (stereo not drawn)	5.68
CC(C(=O)NO)N(Cc1ccccc1[N+](=O)[O-])S(=O)(=O)c1ccccc1 (stereo not drawn)	7.23
CC(C(=O)O)N(Cc1ccccc1[N+](=O)[O-])C(=O)Nc1cccc2ccccc12 (stereo not drawn)	5.30
CC(=O)Nc1ccc(S(=O)(=O)N(Cc2ccccc2[N+](=O)[O-])C(C)C(=O)O)cc1 (stereo not drawn)	5.48
CC(C(=O)NO)N(Cc1ccccc1[N+](=O)[O-])C(=O)NS(=O)(=O)c1ccc(Cl)cc1 (stereo not drawn)	8.15
CC(C(=O)NO)N(Cc1ccccc1[N+](=O)[O-])S(=O)(=O)c1ccc(NC(=O)OC(C)(C)C)cc1 (stereo not drawn)	8.05
CC(C(=O)O)N(Cc1ccccc1[N+](=O)[O-])C(=O)Nc1cccc(Cl)c1 (stereo not drawn)	5.18
CC(C(=O)NO)N(Cc1ccccc1[N+](=O)[O-])S(=O)(=O)c1ccc(Br)cc1 (stereo not drawn)	7.48
CC(C(=O)NO)N(Cc1ccccc1[N+](=O)[O-])C(=O)Nc1ccc(F)cc1 (stereo not drawn)	7.82
CC(C(=O)NO)N(Cc1ccccc1[N+](=O)[O-])S(=O)(=O)c1cccc2ccccc12 (stereo not drawn)	8.22
CC(C(=O)O)N(Cc1ccccc1[N+](=O)[O-])S(=O)(=O)c1cccc(C(=O)O)c1 (stereo not drawn)	5.68

====

Quick list: Ki per entry.
assayName: Inhibitory activity against clostridium histolyticum collagenase

compound	Ki / nM
CC(C(=O)O)N(Cc1ccccc1[N+](=O)[O-])S(=O)(=O)c1ccccc1[N+](=O)[O-] (centres undefined)	4400
CC(C(=O)O)N(Cc1ccccc1[N+](=O)[O-])S(=O)(=O)c1ccccc1 (centres undefined)	27000
CC(C(=O)O)N(Cc1ccccc1[N+](=O)[O-])C(=O)NS(=O)(=O)c1ccccc1 (centres undefined)	3600
CC(C(=O)NO)N(Cc1ccccc1[N+](=O)[O-])S(=O)(=O)c1cc(Cl)ccc1Cl (centres undefined)	14
CC(C(=O)O)N(Cc1ccccc1[N+](=O)[O-])C(=S)NC(=O)c1ccccc1 (centres undefined)	700
CC(C(=O)O)N(Cc1ccccc1[N+](=O)[O-])C(=O)Nc1ccc(Cl)cc1 (centres undefined)	6800
CC(C(=O)NO)N(Cc1ccccc1[N+](=O)[O-])S(=O)(=O)c1cccc2cccnc12 (centres undefined)	9
CC(C(=O)NO)N(Cc1ccccc1[N+](=O)[O-])C(=O)Nc1ccc(Cl)c(Cl)c1 (centres undefined)	14
CC(C(=O)NO)N(Cc1ccccc1[N+](=O)[O-])S(=O)(=O)c1ccc(Cl)cc1 (centres undefined)	32
